Assignment: determine reported MIC for the given compounds.
# Test system: ESBL Klebsiella pneumonia clinical strain 63575
# Type: cell-based
Residues, ends and D or L forms follow the SMILES beside them.
Just the number in µM, nothing appended.

stdin: Entry N=C(N)NCCC[C@H](NC(=O)[C@H](CCCNC(=N)N)NC(=O)[C@@H](N)Cc1ccccc1)C(=O)N[C@@H](Cc1c[nH]c2ccccc12)C(=O)N[C@@H](Cc1c[nH]c2ccccc12)C(=O)N[C@@H](CCCCN)C(=O)N[C@@H](Cc1c[nH]c2ccccc12)C(=O)N[C@@H](Cc1ccccc1)C(=O)N[C@@H](CCCCN)C(N)=O [HHC53, FRRWWKWFK] (H-FRRWWKWFK-NH2; N-terminus assumed) : reported MIC = ?
stdout: 24

stdin: Try this compound next: CC[C@H](C)[C@H](NC(=O)[C@H](Cc1c[nH]c2ccccc12)NC(=O)[C@H](CCCCN)NC(=O)[C@H](Cc1c[nH]c2ccccc12)NC(=O)[C@H](Cc1c[nH]c2ccccc12)NC(=O)[C@H](CCCNC(=N)N)NC(=O)[C@@H](N)CCCCN)C(=O)N[C@@H](CCCNC(=N)N)C(=O)N[C@@H](Cc1c[nH]c2ccccc12)C(N)=O [HHC10, KRWWKWIRW] (H-KRWWKWIRW-NH2; N-terminus assumed)
stdout: 6

stdin: Try this compound next: CC[C@H](C)[C@H](NC(=O)[C@H](Cc1c[nH]c2ccccc12)NC(=O)[C@H](CCCCN)NC(=O)[C@@H](N)CCCNC(=N)N)C(=O)N[C@@H](Cc1c[nH]c2ccccc12)C(=O)N[C@@H](CCCNC(=N)N)C(=O)N[C@@H](Cc1c[nH]c2ccccc12)C(=O)N[C@@H](Cc1ccccc1)C(=O)N[C@@H](CC(C)C)C(N)=O [HHC75, RKWIWRWFL] (H-RKWIWRWFL-NH2; N-terminus assumed)
stdout: 3.1
